- METHOD DESCRIPTION: Biodistribution of radiotracers in normal mice
- Type: in vivo, mouse
- CONDITION INFO: normal male mice, 60 min
ENDPOINT LABEL: Biodistribution: Brain (% dose/g)
Answer in % dose/g, number only, no unit symbol.

1. O=C(O)CC[C@H](NC(=O)N[C@@H](CCCCNC(=O)CCCCCNC(=O)CCc1ccc2c(c1)C[N+]13CC[N+]45CC(=O)[O][68Ga-3]14([O]C(=O)C3)([O]2)[O]c1ccc(CCC(=O)N[C@@H](CC(=O)O)C(=O)O)cc1C5)C(=O)O)C(=O)O (some centres unmarked) [[^68Ga]1e]: 0.02

Next up:
For O=C(O)CCc1ccc2c(c1)C[N+]13CC[N+]45CC(=O)[O][68Ga-3]14([O]C(=O)C3)([O]2)[O]c1ccc(CCC(=O)NCCCCCC(=O)NCCCC[C@H](NC(=O)N[C@@H](CCC(=O)O)C(=O)O)C(=O)O)cc1C5 (some centres unmarked) [[^68Ga]1a, reference compound] the compound record lists Biodistribution: Brain as 0.02
